# TARGET UNDER TEST: T1, human ASGR-1 mutant construct H203 (human, UniProt P07306 1-291)
# T1 construct: Arg/Glu scanning: non-arginine residues were changed to arginine; Transiently expressed on CHO-S cells
# T1 sequence: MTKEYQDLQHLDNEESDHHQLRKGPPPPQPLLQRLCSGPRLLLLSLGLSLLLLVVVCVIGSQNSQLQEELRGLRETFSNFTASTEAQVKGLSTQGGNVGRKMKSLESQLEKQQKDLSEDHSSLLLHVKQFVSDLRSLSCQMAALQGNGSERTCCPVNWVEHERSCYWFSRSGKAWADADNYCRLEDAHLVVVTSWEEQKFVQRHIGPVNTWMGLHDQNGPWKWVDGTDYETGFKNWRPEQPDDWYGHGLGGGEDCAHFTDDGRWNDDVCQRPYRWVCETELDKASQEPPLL
# TEST NAME: FACS ratio: 65C12 geomean / this mAb geomean
Expression Normalization to mAb 65C12 reference
In your answer, state the number alone without any accompanying words.

Reference set, count: 5
BINDER: 218G4 (antibody, V domains shown, mAb) VH: QVQLVESGGGVVQPGRSLRLSCAASGFTFSSYGLHWVRQAPGKGLEWVAVIWYDGSNKYYADSVKGRFTISRDNSKNTLYLQMNSLRVEDTAVYYCANWYYYYYGMDVWGQGTTVTVSS VL: QSVLTQPPSVSAAPGQKVTISCSGSSSNIGNNYVSWYQQLPGTAPKLLLYDSNKRPSGIPARFSGSKSGTSATLGITGLQTGDEADYYCGTWDSSLNTVVFGGGTKLTVL
TEST RESULT: 3.25
--
BINDER: 85F7 (antibody, V domains shown, mAb) VH: QVQLQQWGAGLLKPSEPLSLTCAVYGGSFSGPYWSWIRQPPGKGLEWIGEINHSGSTNYNPSLKSRVTISVDTSKNQFSLKLTSVTAADTAVYYCARDYGGLDVWGQGTTVTVSS VL: EPVLTQSPGTLSLSPGERATLSCRASQNIYSNYLAWYQQKPGQAPRLLIYGASSRATGIPDRFSGSGSGTDFTLTISRLEPEDFAVYCCQQYESSPWTFGQGTKVEIK
TEST RESULT: 1.56
--
BINDER: 7G4 (antibody, V domains shown, mAb) VH: QVQLVESGGGVVQPGRSLRLSCAASGFTFNNYVMHWVRQAPGKGLEWVAVIWYDGSNKYYADSVKGRFTISRDNSKNTLYLQMTSLRAEDTAVYYCAREKYSSNWYDYGMDVWGQGTTVTVSS VL: DIQMTQSPSSLSASVGDRVTITCRASQGIRNDLGWYQQRPGKAPKRLIYAASSLQSGVPSRFSGSGSGTEFTLTISSLQPEDSATYYCLHQYSYPRTFGQGTKVEIK
TEST RESULT: 1.39
--
BINDER: 22G5 (antibody, V domains shown, mAb) VH: EVQLLESGGGLVQPGGSLRLSCAASGFTFSSYAMNWVRQAPGMGLEWVSVISRSGGYTYYADSVKGRFTISRDNSKNTLYLQMNSLRAEDTAVYYCASRLAVAGSEAFDIWGQGTLVTVSS VL: DIQMTQSPSSLSASVGDRVTITCRASQNISSYLNWYQQKQGKAPKLLIYAASSLQNGVPSRFSGRGSGTDFTLTISSLQPEDFATYYCQQSYRTPLFTFGPGTKVDFK
TEST RESULT: 1.71
--
BINDER: 60D2 (antibody, V domains shown, mAb) VH: EVQLVESGGGLVQPGGSLRLSCGASGFTFSSYSMNWVRQAPGKGLEWVSYISESSNIIYYTDSVKGRFTISRDNAMNSLYLQMNSLRDEDTAVYYCARADTPMVLYFYGMDVWGQGTTVTVSS VL: SYELTQPPSVSVSPGQTASITCSGNKLGDKYASWYQQRPGQSPVLVIYQDNKRPSGIPERFSGSNSGNTATLTISGTQTMDEADYYCQAWDNNTVVFGGGTKLTVL
TEST RESULT: 18.8

Now turn to the next binder.
Give the measured Expression Normalization to mAb 65C12 of 147E9 (antibody, V domains shown, mAb) VH: EVQLVESGGGLVQPGGSLRLSCAASGFTFSSYSMNWVRQAPGKGLEWVSSISGRNTTIYYADSVKGRFTISRDNAKNSLYLQMNSLRDEDTAVYYCSRDRGSCWGQGTLVTVSS VL: DIQMTQSPSSLSASVGDRVTITCRASQDINNYLAWFQQKPGKAPKSLIVAASSLQSGVPSKFSGSGSGTDFTLTISSLQPEDFATYYCQQYNSYPLTFGGGTKVEIK . 1.2
